assay system: recombinant human TRPV1 (HEK-293 cells) (Homo sapiens, UniProt Q8NER1)
Construct: expressed in transfected cells
Sequence (Q8NER1 whole entry): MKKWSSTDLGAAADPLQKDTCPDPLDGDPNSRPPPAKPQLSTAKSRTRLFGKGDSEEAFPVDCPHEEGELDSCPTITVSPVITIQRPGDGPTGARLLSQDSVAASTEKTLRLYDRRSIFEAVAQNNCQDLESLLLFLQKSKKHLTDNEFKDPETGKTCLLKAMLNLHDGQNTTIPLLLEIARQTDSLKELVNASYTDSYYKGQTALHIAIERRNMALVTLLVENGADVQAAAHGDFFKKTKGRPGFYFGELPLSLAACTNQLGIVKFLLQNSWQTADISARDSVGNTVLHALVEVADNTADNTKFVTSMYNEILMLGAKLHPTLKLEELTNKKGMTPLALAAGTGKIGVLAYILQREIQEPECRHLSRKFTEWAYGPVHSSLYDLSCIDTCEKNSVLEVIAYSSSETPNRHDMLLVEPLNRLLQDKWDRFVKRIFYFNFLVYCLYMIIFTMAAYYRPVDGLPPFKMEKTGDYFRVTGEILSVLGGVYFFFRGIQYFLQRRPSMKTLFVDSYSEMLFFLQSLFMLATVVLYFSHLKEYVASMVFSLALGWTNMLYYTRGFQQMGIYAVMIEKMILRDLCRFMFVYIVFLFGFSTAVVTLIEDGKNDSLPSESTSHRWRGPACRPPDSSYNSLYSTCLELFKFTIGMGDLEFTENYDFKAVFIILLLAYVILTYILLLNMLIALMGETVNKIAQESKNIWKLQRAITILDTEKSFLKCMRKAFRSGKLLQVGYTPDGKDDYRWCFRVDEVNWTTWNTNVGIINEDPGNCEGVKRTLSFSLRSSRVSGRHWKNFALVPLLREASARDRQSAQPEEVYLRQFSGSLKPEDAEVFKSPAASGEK
protocol notes: Desensitization of anandamide/low pH-induced TRPV1-mediated elevation of intracellular [Ca2+]
Format: cell-based
test conditions: 0.5 μM AEA, acid pH (6.5); read-out: IC50, desensitization of anandamide effect
measured quantity: IC50

1) CCCCCCCCCCCCCCCC(=O)NCc1ccc(O)c(OC)c1 [Palvanil] = 300 pM

====

assay system: recombinant human TRPV1 (HEK-293 cells) (Homo sapiens, UniProt Q8NER1)
protocol notes: TRPV1-mediated elevation of intracellular [Ca2+] (agonist activity)
test conditions: HEK-293-TRPV1 cells, Fluo-4; read-out: EC50, increase in intracellular calcium
pEC50: −log10 of the molar value.
measured quantity: pEC50

1. CCCCCCCCCCCCCCCC(=O)NCc1ccc(O)c(OC)c1 = 9.19

Source: patent US8546352B2
